The following sequences are shown together with reported furin cleavage Z-score values.
Biological target: furin, P09958;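 also: purified furin at 1:10 enzyme:substrate in 50 mM HEPES pH 7.5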
Sequence (P09958 whole entry): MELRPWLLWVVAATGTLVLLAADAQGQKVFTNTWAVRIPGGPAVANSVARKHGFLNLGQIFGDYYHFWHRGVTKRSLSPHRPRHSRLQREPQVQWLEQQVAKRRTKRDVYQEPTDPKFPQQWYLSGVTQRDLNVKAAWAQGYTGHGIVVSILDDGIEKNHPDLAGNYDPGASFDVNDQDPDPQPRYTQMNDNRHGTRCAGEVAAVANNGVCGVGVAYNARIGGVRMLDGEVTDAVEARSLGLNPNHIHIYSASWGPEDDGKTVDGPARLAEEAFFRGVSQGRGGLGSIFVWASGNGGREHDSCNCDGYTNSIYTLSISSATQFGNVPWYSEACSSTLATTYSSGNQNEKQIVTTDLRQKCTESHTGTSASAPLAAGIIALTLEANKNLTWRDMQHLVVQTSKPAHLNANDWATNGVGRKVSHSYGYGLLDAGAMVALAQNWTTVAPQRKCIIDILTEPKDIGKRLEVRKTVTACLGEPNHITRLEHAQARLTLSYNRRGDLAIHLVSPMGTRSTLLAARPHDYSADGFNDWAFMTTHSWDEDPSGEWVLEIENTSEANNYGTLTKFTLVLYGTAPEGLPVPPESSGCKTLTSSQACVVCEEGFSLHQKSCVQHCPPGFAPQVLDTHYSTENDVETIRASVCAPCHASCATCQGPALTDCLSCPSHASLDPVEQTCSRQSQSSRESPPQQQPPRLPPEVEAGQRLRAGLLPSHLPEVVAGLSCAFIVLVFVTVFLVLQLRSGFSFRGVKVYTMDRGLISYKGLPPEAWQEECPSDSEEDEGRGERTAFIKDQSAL
Assay: furin cleavage Z-score vs untreated control; higher = more cleavage, active = 3.5 or more, inactive = 1 or less, 8 variable residues between constant flanks
Conditions: 30 min
The list shows a part of the results. No count for the full screen is at hand.

{"columns": ["sequence-chain", "furin cleavage Z-score"],
 "data": [
  ["CARRPRHLSAAGNASASA [FS-1837]", "5.51 (active)"],
  ["CAQWIRVKRTAGNASASA [FS-372]", "8.64 (active)"],
  ["CASWNRVARTAGNASASA [FS-199]", "5.03 (active)"],
  ["CAMPRRRGRFAGNASASA [FS-1037]", 2.55]
]}
